FYI, the data here is from BigSolDB 2.1.

conditions: in n-pentanol, 308.15 K
reportedProperty: solubility (mole fraction)
Answer using only a numeral; do not append any unit.

// solubility (mole fraction) value for COc1cc2c(cc1OC)C(=O)CC2 : 0.0509

---

conditions: in ethyl acetate, 288.15 K
reportedProperty: solubility (mole fraction)
Answer using only a numeral; do not append any unit.

// solubility (mole fraction) value for COc1cc2c(cc1OC)C(=O)CC2 : 0.0492

---

details: in acetone, 313.15 K
reportedProperty: solubility (mole fraction)
Answer using only a numeral; do not append any unit.

// solubility (mole fraction) value for COc1cc2c(cc1OC)C(=O)CC2 : 0.146

---

conditions: in methyl acetate, 288.15 K
reportedProperty: solubility (mole fraction)
Answer using only a numeral; do not append any unit.

// solubility (mole fraction) value for COc1cc2c(cc1OC)C(=O)CC2 : 0.053

---

conditions: in n-propanol, 318.15 K
reportedProperty: solubility (mole fraction)
Answer using only a numeral; do not append any unit.

// solubility (mole fraction) value for COc1cc2c(cc1OC)C(=O)CC2 : 0.0579

---

conditions: in 2-butanone, 303.15 K
reportedProperty: solubility (mole fraction)
Answer using only a numeral; do not append any unit.

// solubility (mole fraction) value for COc1cc2c(cc1OC)C(=O)CC2 : 0.105

---

conditions: in isobutanol, 288.15 K
reportedProperty: solubility (mole fraction)

// solubility (mole fraction) value for COc1cc2c(cc1OC)C(=O)CC2 : 0.0161

---

settings: in isobutanol, 323.15 K
reportedProperty: solubility (mole fraction)
Answer using only a numeral; do not append any unit.

// solubility (mole fraction) value for COc1cc2c(cc1OC)C(=O)CC2 : 0.102

---

conditions: in sec-butanol, 313.15 K
reportedProperty: solubility (mole fraction)
Answer using only a numeral; do not append any unit.

// solubility (mole fraction) value for COc1cc2c(cc1OC)C(=O)CC2 : 0.0612

---

details: in n-propyl acetate, 293.15 K
reportedProperty: solubility (mole fraction)
Answer using only a numeral; do not append any unit.

// solubility (mole fraction) value for COc1cc2c(cc1OC)C(=O)CC2 : 0.05

---

settings: in acetone, 298.15 K
reportedProperty: solubility (mole fraction)
Answer using only a numeral; do not append any unit.

// solubility (mole fraction) value for COc1cc2c(cc1OC)C(=O)CC2 : 0.0834

---

conditions: in methyl acetate, 293.15 K
reportedProperty: solubility (mole fraction)

// solubility (mole fraction) value for COc1cc2c(cc1OC)C(=O)CC2 : 0.0665

---

details: in methanol, 293.15 K
reportedProperty: solubility (mole fraction)
Answer using only a numeral; do not append any unit.

// solubility (mole fraction) value for COc1cc2c(cc1OC)C(=O)CC2 : 0.0171

---

settings: in ethyl acetate, 303.15 K
reportedProperty: solubility (mole fraction)

// solubility (mole fraction) value for COc1cc2c(cc1OC)C(=O)CC2 : 0.0842

---

conditions: in n-butyl acetate, 288.15 K
reportedProperty: solubility (mole fraction)
Answer using only a numeral; do not append any unit.

// solubility (mole fraction) value for COc1cc2c(cc1OC)C(=O)CC2 : 0.0294

---

details: in n-propanol, 298.15 K
reportedProperty: solubility (mole fraction)
Answer using only a numeral; do not append any unit.

// solubility (mole fraction) value for COc1cc2c(cc1OC)C(=O)CC2 : 0.0206

---

conditions: in isopropyl acetate, 303.15 K
reportedProperty: solubility (mole fraction)

// solubility (mole fraction) value for COc1cc2c(cc1OC)C(=O)CC2 : 0.0581
